This collection of values is drawn from paper PMC9823934.

# assay-target: XIAP-BIR1 (Homo sapiens)
# Sequence (P98170 10-99 limits assumed): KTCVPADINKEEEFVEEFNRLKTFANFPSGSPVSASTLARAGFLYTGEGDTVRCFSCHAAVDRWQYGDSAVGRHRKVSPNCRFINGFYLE
# run-description: Trp fluorescence binding assay on XIAP-BIR1
Kd by entry:
Give the value, in units of µM, as a plain number.

COc1ccc(C2Nc3ccc(C(=O)c4ccccc4)cc3NC3=C2C(=O)CCC3)cc1OC (stereo not shown) [4o] | 7.5

IN: Return reported Kd; argument: COc1cc(C2Nc3ccc(C(=O)c4ccccc4)cc3NC3=C2C(=O)CCC3)ccc1O (stereo not shown) [4r]
OUT: 33.1

---

# assay-target: cIAP2-BIR1 (Homo sapiens)
# Sequence (Q13489 26-99 limits assumed): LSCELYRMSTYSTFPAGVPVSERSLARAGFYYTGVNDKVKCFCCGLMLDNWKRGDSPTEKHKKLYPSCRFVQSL
# run-description: Trp fluorescence binding assay on cIAP2-BIR1
# run-conditions: read-out: Kd (cIAP2-BIR1); Trp fluorescence titration, 23 °C, pH 8.0
pKd: −log10 of the molar value.
measured-quantity: pKd

Example entries and their recorded answers appear below.
COc1cccc(C2Nc3ccc(C(=O)c4ccccc4)cc3NC3=C2C(=O)CCC3)c1 (stereo not drawn) | < 4.30
O=C1CCCC2=C1C(c1ccc(O)c([N+](=O)[O-])c1)Nc1ccc(C(=O)c3ccccc3)cc1N2 (stereo not drawn) | < 4.30

Next compound, pKd to be filled in.
IN: Which pKd value belongs to O=C1CCCC2=C1C(c1ccc(O)cc1)Nc1ccc(C(=O)c3ccccc3)cc1N2 (stereo not drawn) ?
OUT: 4.56

---

# assay-target: XIAP-BIR1 (Homo sapiens)
# run-description: Trp fluorescence binding assay on XIAP-BIR1
measured-quantity: pKd
Value format note: pKd is -log10 of concentration (mol/L); just state the number.

O=C1CCCC2=C1C(c1ccc(C(F)(F)F)cc1)Nc1ccc(C(=O)c3ccccc3)cc1N2 (stereo not shown) | 4.83

Shift focus to the following entry.
IN: // returns reported pKd for input COc1cc(C2Nc3ccc(C(=O)c4ccccc4)cc3NC3=C2C(=O)CCC3)cc([N+](=O)[O-])c1O (stereo not shown)
OUT: 4.33

---

# assay-target: cIAP2-BIR1 (Homo sapiens)
# run-description: Trp fluorescence binding assay on cIAP2-BIR1
measured-quantity: pKd
Notebook: values listed as pKd are -log10 of the concentration (mol/L).

Example compounds with recorded pKd:
O=C1CCCC2=C1C(c1cccc(O)c1)Nc1ccc(C(=O)c3ccccc3)cc1N2 (centres unmarked) | 4.41
O=C1CCCC2=C1C(c1ccc3c(c1)OC(F)(F)O3)Nc1ccc(C(=O)c3ccccc3)cc1N2 (centres unmarked) | 4.79
O=C1CCCC2=C1C(c1ccc(C(F)(F)F)cc1)Nc1ccc(C(=O)c3ccccc3)cc1N2 (centres unmarked) | 4.36
O=C1CCCC2=C1C(c1ccccc1)Nc1ccc(C(=O)c3ccccc3)cc1N2 (centres unmarked) | 4.66

Turning now to a further compound:
IN: What value of pKd has been recorded for this entry: O=C1CCCC2=C1C(c1cccs1)Nc1ccc(C(=O)c3ccccc3)cc1N2 (centres unmarked)
OUT: 4.33

---

Measured EC50 accompanies every entry in the list below.
# Test system: MDA-MB-231 cells
# run-description: Cell viability assay (PrestoBlue) in MDA-MB-231, with or without TNF
# Assay type: cell-based, human
# run-conditions: Homo sapiens, MDA-MB-231, 48 h, MDA-MB-231, in combination with 50 ng/mL TNF, 48 h treatment, read-out: EC50 (+TNF)
API: value field is a number in µM; no unit string.

Worked cases, EC50 given:
Cc1ccc(C2Nc3ccc(C(=O)c4ccccc4)cc3NC3=C2C(=O)CCC3)cc1 (stereo not shown) | 47.9
COc1ccc(C2Nc3ccc(C(=O)c4ccccc4)cc3NC3=C2C(=O)CCC3)cc1 (stereo not shown) | 36.3
O=C1CCCC2=C1C(c1ccc(O)cc1)Nc1ccc(C(=O)c3ccccc3)cc1N2 (stereo not shown) | 59.7
O=C1CCCC2=C1C(c1cccs1)Nc1ccc(C(=O)c3ccccc3)cc1N2 (stereo not shown) | 9.2
COc1cccc(C2Nc3ccc(C(=O)c4ccccc4)cc3NC3=C2C(=O)CCC3)c1 (stereo not shown) | 13

IN: Consider the molecule O=C1CCCC2=C1C(c1ccc(C(F)(F)F)cc1)Nc1ccc(C(=O)c3ccccc3)cc1N2 (stereo not shown) and give its measured EC50.
OUT: 48.8

IN: Param item = O=C1CCCC2=C1C(c1ccc(O)c(O)c1)Nc1ccc(C(=O)c3ccccc3)cc1N2 (stereo not shown) ; retrieve measured EC50.
OUT: 9.5
